System: Mycobacterium tuberculosis Erdman (autoluminescent)
Test: FIC90 (Loewe) at 90% inhibition (log2); higher = more antagonistic
Conditions: in vitro model: acidic pH 5.7; time point: terminal (~4-5 doublings, model-specific)
property_label: FIC90
API doc: respond with a numeric literal and nothing else, no unit.

COc1nc2ccc(Br)cc2cc1[C@@H](c1ccccc1)[C@@](O)(CCN(C)C)c1cccc2ccccc12 [bedaquiline] + CC(=O)NC[C@H]1CN(c2ccc(N3CCOCC3)c(F)c2)C(=O)O1 [linezolid] = 0.271
COc1nc2ccc(Br)cc2cc1[C@@H](c1ccccc1)[C@@](O)(CCN(C)C)c1cccc2ccccc12 [bedaquiline] + O=[N+]([O-])c1cn2c(n1)OC[C@@H](OCc1ccc(OC(F)(F)F)cc1)C2 [pretomanid] = 0.292
CC(=O)NC[C@H]1CN(c2ccc(N3CCOCC3)c(F)c2)C(=O)O1 [linezolid] + NC(=O)c1cnccn1 [pyrazinamide] = -1.67

I am curious: what FIC90 value has been reported for O=[N+]([O-])c1cn2c(n1)OC[C@@H](OCc1ccc(OC(F)(F)F)cc1)C2 [pretomanid] + CO[C@H]1/C=C/O[C@@]2(C)Oc3c(C)c(O)c4c(O)c(c(/C=N/N5CCN(C6CCCC6)CC5)c(O)c4c3C2=O)NC(=O)/C(C)=C\C=C\[C@H](C)[C@H](O)[C@@H](C)[C@@H](O)[C@@H](C)[C@H](OC(C)=O)[C@@H]1C ?
0.243
